- EXPERIMENT: Pharmacokinetics of acteoside and its metabolites in rat plasma after oral acteoside (UPLC-QqQ-MS)
- Format: in vivo, male Sprague–Dawley rats
- CONDITIONS_USED: male, Sprague-Dawley, rat, plasma, po, 100 mg/kg, metabolite in rat plasma following oral acteoside 100 mg/kg, WCP group, n = 6
PROPERTY_NAME: AUC(0-inf) (ng·h/mL)

[P] OCCc1ccc(O)c(O)c1 [Hydroxytyrosol, hydroxytyrosol]
[Q] O=C(O)/C=C/c1ccc(O)c(O)c1 [Caffeic acid, caffeic acid]
Lookup: Hi, I'm comparing P with Q and wondering which one has the bigger number for AUC(0-inf). Any idea? Identify your pick by its label.
Found: Q
(Q: 144 ng·h/mL, P: 91.3 ng·h/mL)
